molecular target: Kdn(a2-3)Gal(b1-4)GlcNAc; assay: glycan array binding signal (z-score within array); higher = stronger binding; conditions: glycan notation: IUPAC condensed, linker removed
The full list was thinned out, with the strongest signals kept by preference.
Can you tell me glycan array binding signal (z-score) for the items I'm about to list?
Numbers only.

Below, each entry is followed by its recorded glycan array binding signal (z-score) result.
CBP21 (Serratia marcescens), O83009 (protein) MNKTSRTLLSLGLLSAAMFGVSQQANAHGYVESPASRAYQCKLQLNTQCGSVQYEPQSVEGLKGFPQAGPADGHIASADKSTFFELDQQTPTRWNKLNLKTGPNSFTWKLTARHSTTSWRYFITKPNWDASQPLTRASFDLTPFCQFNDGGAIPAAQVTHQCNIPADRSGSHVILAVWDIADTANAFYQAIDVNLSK
-0.42
PLU (Photorhabdus luminiscence) (protein) HHHHHHENLYFQSSIVFASIDPRSNPLQTSSQNYVDIPGLKLDVSKYSNSPCLTALITLNIPTPYASGNNFPGGNFAIVTDQGEQLAYGGFTYSSKIPENSGRMPFTLVARYSLASNVSTIKAQWSNIRGSTVHIDSYASISAVIQCNQLV
-0.224

Query block: May I ask what glycan array binding signal (z-score) has been recorded for Epa9 (Candida glabrata), CAGL0A01386g (protein) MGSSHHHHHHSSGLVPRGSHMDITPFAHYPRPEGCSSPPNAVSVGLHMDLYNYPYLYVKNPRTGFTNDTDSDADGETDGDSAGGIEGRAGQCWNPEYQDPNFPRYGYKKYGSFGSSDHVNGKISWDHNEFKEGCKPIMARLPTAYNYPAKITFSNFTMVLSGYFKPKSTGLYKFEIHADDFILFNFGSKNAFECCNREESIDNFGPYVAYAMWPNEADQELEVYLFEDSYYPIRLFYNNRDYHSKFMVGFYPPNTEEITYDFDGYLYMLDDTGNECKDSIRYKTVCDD ?
Result block: -0.394
